# Measured on: recombinant human PAI-1 (Homo sapiens, UniProt P05121)
# Sequence (P05121 24-402): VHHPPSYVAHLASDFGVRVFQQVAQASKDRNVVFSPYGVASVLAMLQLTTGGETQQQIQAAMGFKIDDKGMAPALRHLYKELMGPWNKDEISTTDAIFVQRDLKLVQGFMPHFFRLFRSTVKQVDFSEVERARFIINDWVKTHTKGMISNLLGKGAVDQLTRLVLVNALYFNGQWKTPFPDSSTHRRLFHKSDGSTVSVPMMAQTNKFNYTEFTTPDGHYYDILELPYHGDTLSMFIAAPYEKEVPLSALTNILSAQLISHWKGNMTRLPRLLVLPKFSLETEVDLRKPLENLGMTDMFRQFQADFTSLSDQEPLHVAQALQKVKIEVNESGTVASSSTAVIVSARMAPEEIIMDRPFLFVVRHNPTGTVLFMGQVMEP
# Test name: biochemical;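 also: PAI-1 preincubated with compound, then two-chain tPA added, residual tPA activity read with fluorogenic Pyr-Gly-Arg-MCA substrate after 30 min at room temperature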
# Recorded conditions: read-out: Inhibition Rate of PAI-1 Activity (%)
Measured parameter: inhibition at 10 µM (%)
Numbers only, in %.

• COc1cc(-c2ccc(OC(F)(F)F)cc2)cc(/C=C/C(=O)O)c1OCc1ccc(C(C)(C)C)cc1 [Compound 81] = 63
• CC(C)(C)c1ccc(CN(C(=O)C(=O)O)c2ccc(-c3cccc([N+](=O)[O-])c3)cc2)cc1 [Compound 142] = 3
• CC(C)(C)c1ccc(CN(C(=O)CCC(=O)O)c2ccc(-c3ccc(OC(F)(F)F)cc3)cc2)cc1 [Compound 609] = 69

// batch mode: one inhibition at 10 µM value per listed entry
1. Cc1cc(-c2ccc(OC(F)(F)F)cc2)ccc1N(Cc1ccc(C(C)(C)C)cc1)C(=O)C(=O)O [Compound 146]
2. CC(C)(C)c1ccc(COc2cc(CCC(=O)O)cc(Oc3ccc(OC(F)(F)F)cc3)c2)cc1 [Compound 410]
3. O=C(O)CCc1cc(-c2ccc(OC(F)(F)F)cc2)ccc1OCCCc1ccccc1 [Compound 101]
4. CC(C)(C)c1ccc(CN(C(=O)C(=O)O)c2ccc(Cl)c(OCc3ccc(OC(F)(F)F)cc3)c2)cc1 [Compound 629]
5. Cc1cc(C)cc(CN(C(=O)C(=O)O)c2ccc(-c3ccc(OC(F)(F)F)cc3)cc2)c1 [Compound 123]
6. O=C(O)C(=O)N(Cc1ccc(-c2ccccc2)cc1)c1ccc(-c2ccc(OC(F)(F)F)cc2)cc1 [Compound 161]
7. CC(C)(C)c1ccc(N(C(=O)C(=O)O)c2ccc(-c3ccc(OC(F)(F)F)cc3)cc2)cc1 [Compound 128]

OUTPUT:
1. 73
2. 71
3. 73
4. 92
5. 62
6. 62
7. 89
